# target entity: human DGKα (Homo sapiens, UniProt P23743)
# Construct: TVMV protease cleavage site (C); Hexa-His (C); made in house; host or cells: Sf9 insect cells (baculovirus, Bac-to-Bac)
# Sequence (P23743 with tags, fused parts or gaps): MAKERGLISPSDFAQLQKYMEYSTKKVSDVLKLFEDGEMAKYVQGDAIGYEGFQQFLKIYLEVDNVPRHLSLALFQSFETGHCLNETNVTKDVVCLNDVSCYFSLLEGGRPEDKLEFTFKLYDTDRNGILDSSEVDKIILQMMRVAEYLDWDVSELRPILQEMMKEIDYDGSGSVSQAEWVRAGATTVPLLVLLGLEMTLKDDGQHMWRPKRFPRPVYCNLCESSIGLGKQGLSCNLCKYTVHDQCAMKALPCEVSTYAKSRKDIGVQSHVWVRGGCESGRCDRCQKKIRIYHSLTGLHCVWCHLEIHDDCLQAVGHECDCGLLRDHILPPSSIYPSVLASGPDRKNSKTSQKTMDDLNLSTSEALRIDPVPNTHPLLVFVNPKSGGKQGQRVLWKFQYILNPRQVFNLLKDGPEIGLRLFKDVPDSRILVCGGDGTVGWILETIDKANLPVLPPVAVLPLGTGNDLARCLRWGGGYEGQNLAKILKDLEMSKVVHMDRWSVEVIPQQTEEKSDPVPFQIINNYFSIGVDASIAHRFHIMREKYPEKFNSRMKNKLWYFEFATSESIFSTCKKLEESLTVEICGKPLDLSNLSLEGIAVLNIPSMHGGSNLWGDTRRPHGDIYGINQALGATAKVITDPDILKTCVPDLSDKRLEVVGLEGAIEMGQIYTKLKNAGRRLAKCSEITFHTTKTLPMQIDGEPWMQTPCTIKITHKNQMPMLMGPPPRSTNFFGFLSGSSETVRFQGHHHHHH
# method description: DGKα LIPGLO assay (extruded liposome substrate), in vitro DGK inhibition
# Format: biochemical
# condition parameters: liposome (LIPGLO) assay; read-out: DGKa LIPGLO IC50
Kindly supply the reported IC50 values for the records listed here.
Numbers only, in µM.

# per-item lookup of IC50; items listed below
1. C[C@@H]1CN(c2cc(=O)n(C)c3ccc(C#N)nc23)[C@@H](C)CN1C(c1cccc(F)c1)c1ccccn1 (single isomer, unassigned) [Example 379]
2. Cc1ccc(C(c2ccc(C)c(Cl)c2)N2C[C@H](C)N(c3cc(=O)n(C)c4ccc(C#N)nc34)C[C@H]2C)nc1 (stereo partly shown) [Example 399]
3. C[C@@H]1CN(Cc2c(F)cc(F)cc2F)[C@@H](CO)CN1c1cc(=O)n(C)c2ccc(C#N)nc12
4. C[C@H]1CN(c2c(C#N)c(=O)n(C)c3ccc(C#N)nc23)CCN1C(c1ccc(F)cc1)c1ccc(F)cc1
5. CCC(c1ccc(OC(F)(F)F)cc1F)N1C[C@H](C)N(c2cc(=O)n(C)c3ccc(C#N)nc23)C[C@H]1CC (single isomer, unassigned) [Example 420]

1. 2
2. 2.3
3. 34
4. 2.2
5. 0.31

###

# target entity: human DGKα (Homo sapiens, UniProt P23743)
# Construct: TVMV protease cleavage site (C); Hexa-His (C); made in house; host or cells: Sf9 insect cells (baculovirus, Bac-to-Bac)
# method description: DGKα LIPGLO assay (extruded liposome substrate), in vitro DGK inhibition
# Type: biochemical
# condition parameters: liposome (LIPGLO) assay; read-out: DGKa LIPGLO IC50
measured parameter: IC50 (nM)
One number for each entry, in nM.

compound: CC(c1ccc(OC(F)F)cn1)N1C[C@H](C)N(c2cc(=O)n(C)c3ccc(C#N)nc23)C[C@H]1C (stereo partly drawn) [Example 653]
value units: nM
readout value: 94

# per-item lookup of IC50; items listed below
1. C[C@@H]1CN(c2cc(=O)n(C)c3ccc(C#N)nc23)[C@@H](C)CN1C(c1ccc(OC(F)(F)F)cc1)c1ccc(F)cn1 (single isomer, unassigned) [Example 468]
2. CC(c1ccc2nccnc2c1)N1C[C@H](C)N(c2cc(=O)n(C)c3ccc(C#N)nc23)C[C@H]1C (single isomer, unassigned) [Example 651]

140
50000

###

# target entity: human DGKζ (Homo sapiens, UniProt Q13574)
# Construct: TVMV protease cleavage site (C); Hexa-His (C); made in house; host or cells: Sf9 insect cells (baculovirus, Bac-to-Bac)
# Sequence (Q13574 with tags, fused parts or gaps isoform Q13574-4): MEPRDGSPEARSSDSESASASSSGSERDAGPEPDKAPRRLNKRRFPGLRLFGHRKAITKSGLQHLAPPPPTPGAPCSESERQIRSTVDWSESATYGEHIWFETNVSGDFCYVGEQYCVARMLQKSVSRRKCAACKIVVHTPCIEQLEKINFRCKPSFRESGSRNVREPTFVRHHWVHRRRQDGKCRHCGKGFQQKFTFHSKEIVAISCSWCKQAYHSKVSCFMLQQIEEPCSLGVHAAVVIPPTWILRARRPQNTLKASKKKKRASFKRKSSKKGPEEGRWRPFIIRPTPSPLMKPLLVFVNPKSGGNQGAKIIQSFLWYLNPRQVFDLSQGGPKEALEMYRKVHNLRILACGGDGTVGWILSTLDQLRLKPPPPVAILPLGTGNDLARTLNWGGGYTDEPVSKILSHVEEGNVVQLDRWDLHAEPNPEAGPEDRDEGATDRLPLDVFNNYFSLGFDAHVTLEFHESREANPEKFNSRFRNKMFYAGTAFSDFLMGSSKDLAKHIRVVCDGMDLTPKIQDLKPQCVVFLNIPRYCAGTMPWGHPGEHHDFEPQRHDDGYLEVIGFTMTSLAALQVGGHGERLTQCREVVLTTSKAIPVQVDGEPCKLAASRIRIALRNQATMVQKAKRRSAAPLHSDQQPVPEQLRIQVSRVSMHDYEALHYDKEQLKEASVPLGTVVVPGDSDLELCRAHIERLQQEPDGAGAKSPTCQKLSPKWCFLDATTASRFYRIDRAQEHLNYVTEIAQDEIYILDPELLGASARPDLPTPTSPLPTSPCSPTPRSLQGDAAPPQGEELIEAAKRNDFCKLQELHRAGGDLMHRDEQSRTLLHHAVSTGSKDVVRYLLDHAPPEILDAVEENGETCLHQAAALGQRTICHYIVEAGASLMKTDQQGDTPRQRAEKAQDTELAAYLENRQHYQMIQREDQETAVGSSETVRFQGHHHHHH
# method description: DGKζ LIPGLO assay (extruded liposome substrate), in vitro DGK inhibition
# Format: biochemical
# condition parameters: liposome (LIPGLO) assay; read-out: DGKz LIPGLO IC50
Kindly supply the reported IC50 values for the records listed here.
Give bare numbers, in µM.

Answered examples (2):
compound: CC[C@@H]1CN(c2cc(=O)n(C)c3ccc(C#N)nc23)[C@@H](C)CN1Cc1ccc(F)cc1F
target entity: human DGKζ (Homo sapiens, UniProt Q13574)
readout value: 0.32
//
compound: COc1cccc(C(c2ccc(F)cc2)N2C[C@H](C)N(c3cc(=O)n(C)c4ccc(C#N)nc34)C[C@H]2C)c1 (single isomer, unassigned) [Example 660]
target entity: human DGKζ (Homo sapiens, UniProt Q13574)
readout value: 0.51

Field: next compound
Give its IC50 value. Item: COC(=O)C1CN(c2cc(=O)n(C)c3ccc(C#N)nc23)CCN1C(c1ccc(Cl)cc1)c1ccc(Cl)cc1 (single isomer, unassigned) [Example 97] 1.7
